Tested on: Candida albicans
Test: Antifungal activity against Candida albicans ATCC 90028 after 24 hrs by broth microdilution method
Format: functional
Condition context: ATCC 90028, 24 h
Measurement type: MIC (mg/L)
Provide only the numeric value, understood in mg/L.

Example entries and their recorded answers appear below.
Query block: Requested read-out: MIC. Entry: COc1cc(-n2c(-c3ccc(S(=O)(=O)c4ccc(Br)cc4)cc3)n[nH]c2=S)cc(OC)c1OC
Result block: 64

Query block: Please give the result for COc1cc(Nc2nnc(-c3ccc(S(=O)(=O)c4ccc(Br)cc4)cc3)s2)cc(OC)c1OC too.
Result block: 64

Query block: Please give the result for O=C(NNC(=S)Nc1ccc(OC(F)(F)F)cc1)c1ccc(S(=O)(=O)c2ccccc2)cc1 too.
Result block: 64

Query block: Please give the result for COc1cc(Nc2nnc(-c3ccc(S(=O)(=O)c4ccccc4)cc3)s2)cc(OC)c1OC too.
Result block: 64

Query block: Please give the result for O=S(=O)(c1ccccc1)c1ccc(-c2n[nH]c(=S)n2-c2ccc(OC(F)(F)F)cc2)cc1 too.
Result block: 128

---
Query block: Requested read-out: MIC. Entry: COc1cc(NC(=S)NNC(=O)c2ccc(S(=O)(=O)c3ccccc3)cc2)cc(OC)c1OC
Result block: 64

Query block: Please give the result for O=S(=O)(c1ccc(Br)cc1)c1ccc(-c2n[nH]c(=S)n2-c2ccc(OC(F)(F)F)cc2)cc1 too.
Result block: 128
